- Tested on: Blackgrass
- ASSAY_SUMMARY: post-emergence herbicide test
- Format: in vivo
- CONDITION_SET: Alopecurus myosuroides, post-emergence, 4.5 lb/A; Table 5a; read-out: % plant inhibition
Below, each of the molecules is paired with its reported inhibition at 5043.82 g/ha value.
MEASURED_PARAMETER: inhibition at 5043.82 g/ha (%)

{"MOLECULE": "Cc1c(-c2cc(F)c([N+](=O)[O-])cc2F)nn(C)c1C(F)(F)F [Compound 35]", "MEASURED_PARAMETER": "inhibition at 5043.82 g/ha", "RECORDED_MEASUREMENT": 45}
{"MOLECULE": "Cn1nc(-c2cc(F)ccc2F)c(C=O)c1C(F)(F)F [Compound 34]", "MEASURED_PARAMETER": "inhibition at 5043.82 g/ha", "RECORDED_MEASUREMENT": 30}
{"MOLECULE": "Cc1c(-c2cc(O)c(Cl)cc2F)nn(C)c1C(F)(F)F [Compound 40]", "MEASURED_PARAMETER": "inhibition at 5043.82 g/ha", "RECORDED_MEASUREMENT": 100}
{"MOLECULE": "Cc1c(-c2cc(F)ccc2F)nn(C)c1C(F)(F)F [Compound 1]", "MEASURED_PARAMETER": "inhibition at 5043.82 g/ha", "RECORDED_MEASUREMENT": 35}
